Quick reference for pEC50 among some compounds
system: DNA topoisomerase 1 (Homo sapiens, UniProt P11387)
assay.comment: Inhibitory effect on topoisomerase-1 mediated DNA cleavage using supercoiled pBR322 plasmid DNA
In textbook form, pEC50 equals minus log to base ten of the concentration in mol/L.

Below, each entry is followed by its recorded pEC50 result.
compound	pEC50
O=C1c2c(c3c4ccc(O)cc4n([C@@H]4O[C@@H](C(O)CO)[C@@H](O)[C@H]4O)c3c3[nH]c4cc(O)ccc4c23)C(=O)N1NC(CO)CO (stereo partly drawn)	7.70
O=C1c2c(c3c4ccc(O)cc4n([C@@H]4OC[C@@H](O)[C@H](O)[C@H]4O)c3c3[nH]c4cc(O)ccc4c23)C(=O)N1NC(CO)CO	7.00
O=C1c2c(c3c4ccc(O)cc4n([C@H]4O[C@H](CO)[C@@H](O)[C@@H]4O)c3c3[nH]c4cc(O)ccc4c23)C(=O)N1NC(CO)CO	7.00
O=C1c2c(c3c4ccc(O)cc4n([C@H]4O[C@H](CO)[C@H](O)[C@H]4O)c3c3[nH]c4cc(O)ccc4c23)C(=O)N1NC(CO)CO	7.77
O=C1c2c(c3c4ccc(O)cc4n([C@@H]4OC[C@@H](O)[C@H]4O)c3c3[nH]c4cc(O)ccc4c23)C(=O)N1NC(CO)CO	7.40

Sample O=C1c2c(c3c4ccc(O)cc4n([C@H]4C[C@H](O)[C@@H](CO)O4)c3c3[nH]c4cc(O)ccc4c23)C(=O)N1NC(CO)CO ; pEC50 observed: 7.60

* * *

system: DNA topoisomerase 1 (Homo sapiens)
Sequence (P11387 whole entry): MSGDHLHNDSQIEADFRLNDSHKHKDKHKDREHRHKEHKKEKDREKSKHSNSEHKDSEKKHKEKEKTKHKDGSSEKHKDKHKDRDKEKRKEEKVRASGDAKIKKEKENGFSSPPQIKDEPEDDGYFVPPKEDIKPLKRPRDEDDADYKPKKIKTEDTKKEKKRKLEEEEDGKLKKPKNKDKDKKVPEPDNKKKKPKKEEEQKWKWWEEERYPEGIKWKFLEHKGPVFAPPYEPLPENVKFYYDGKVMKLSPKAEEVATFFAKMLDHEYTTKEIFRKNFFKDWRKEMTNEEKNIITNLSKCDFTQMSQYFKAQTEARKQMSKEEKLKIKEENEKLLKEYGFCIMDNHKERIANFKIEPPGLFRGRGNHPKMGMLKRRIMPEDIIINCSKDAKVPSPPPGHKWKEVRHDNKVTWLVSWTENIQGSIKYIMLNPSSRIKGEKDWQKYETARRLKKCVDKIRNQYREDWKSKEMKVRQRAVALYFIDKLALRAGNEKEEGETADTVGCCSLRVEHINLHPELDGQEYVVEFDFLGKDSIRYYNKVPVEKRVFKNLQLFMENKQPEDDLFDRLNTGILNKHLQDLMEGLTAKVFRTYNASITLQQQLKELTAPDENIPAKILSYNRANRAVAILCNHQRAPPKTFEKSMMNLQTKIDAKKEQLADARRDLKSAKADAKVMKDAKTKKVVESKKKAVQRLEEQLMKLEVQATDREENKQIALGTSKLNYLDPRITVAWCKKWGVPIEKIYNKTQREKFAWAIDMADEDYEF
assay.comment: Inhibitory effect on topoisomerase-1 mediated DNA cleavage using supercoiled pBR322 plasmid DNA
Quick reference for EC50 among some compounds

compound	reported
O=C1c2c(c3c4ccc(O)cc4n([C@@H]4C[C@@H](O)[C@H](O)[C@@H](CO)O4)c3c3[nH]c4cc(O)ccc4c23)C(=O)N1NC(CO)CO	130 nM

Sample O=C1c2c(c3c4ccc(O)cc4n([C@@H]4O[C@H](CO)[C@@H](O)[C@H](O)[C@H]4O)c3c3[nH]c4cc(O)ccc4c23)C(=O)N1NC(CO)CO ; EC50 observed: 51 nM

Sample O=C1c2c(c3c4ccc(O)cc4n([C@@H]4O[C@H](C(O)CO)[C@@H](O)[C@H]4O)c3c3[nH]c4cc(O)ccc4c23)C(=O)N1NC(CO)CO (some centres undefined) ; EC50 observed: 42 nM

Sample O=C1c2c(c3c4ccc(O)cc4n([C@H]4O[C@H](CO)[C@@H](O)[C@H]4O)c3c3[nH]c4cc(O)ccc4c23)C(=O)N1NC(CO)CO ; EC50 observed: 30 nM

* * *

Quick reference for log10 EC50 among some compounds
system: DNA topoisomerase 1 (Homo sapiens, UniProt P11387)
Sequence (P11387 whole entry): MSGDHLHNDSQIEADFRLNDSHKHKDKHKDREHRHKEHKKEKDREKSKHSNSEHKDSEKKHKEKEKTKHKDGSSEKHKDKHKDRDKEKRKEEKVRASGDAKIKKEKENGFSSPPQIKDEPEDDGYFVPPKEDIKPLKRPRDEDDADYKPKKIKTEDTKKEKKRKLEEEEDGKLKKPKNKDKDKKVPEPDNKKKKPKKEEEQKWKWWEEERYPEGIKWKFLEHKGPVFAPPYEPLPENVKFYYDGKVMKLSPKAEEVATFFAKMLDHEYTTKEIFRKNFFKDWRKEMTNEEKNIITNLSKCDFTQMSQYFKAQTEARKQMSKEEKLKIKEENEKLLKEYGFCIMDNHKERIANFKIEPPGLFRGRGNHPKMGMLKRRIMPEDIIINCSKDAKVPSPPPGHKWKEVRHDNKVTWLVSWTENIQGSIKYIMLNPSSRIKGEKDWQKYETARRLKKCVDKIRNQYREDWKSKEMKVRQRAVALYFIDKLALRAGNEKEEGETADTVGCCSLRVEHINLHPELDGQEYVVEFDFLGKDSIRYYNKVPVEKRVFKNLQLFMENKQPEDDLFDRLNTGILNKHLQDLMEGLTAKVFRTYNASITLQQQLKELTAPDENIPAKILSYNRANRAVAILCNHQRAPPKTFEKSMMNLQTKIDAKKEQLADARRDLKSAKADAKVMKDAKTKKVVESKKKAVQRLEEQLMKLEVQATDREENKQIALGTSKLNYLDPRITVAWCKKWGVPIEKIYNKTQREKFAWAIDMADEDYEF
assay.comment: Inhibitory effect on topoisomerase-1 mediated DNA cleavage using supercoiled pBR322 plasmid DNA
Note the log scale: values are log10 of EC50 expressed in nM.

Sample O=C1c2c(c3c4ccc(O)cc4n([C@H]4O[C@H](CO)[C@@H](O)[C@H](O)[C@@H]4O)c3c3[nH]c4cc(O)ccc4c23)C(=O)N1NC(CO)CO ; log10 EC50 observed: 1.90

Sample C[C@H]1O[C@@H](n2c3cc(O)ccc3c3c4c(c5c6ccc(O)cc6[nH]c5c32)C(=O)N(NC(CO)CO)C4=O)[C@H](O)[C@@H](O)[C@@H]1O ; log10 EC50 observed: 2.15

Sample O=C1c2c(c3c4ccc(O)cc4n([C@H]4O[C@H](CO)[C@@H](O)[C@H](O)[C@H]4O)c3c3[nH]c4cc(O)ccc4c23)C(=O)N1NC(CO)CO ; log10 EC50 observed: 2.48

Sample O=C1c2c(c3c4ccc(O)cc4n([C@@H]4O[C@H](CO)[C@H](O)[C@H]4O)c3c3[nH]c4cc(O)ccc4c23)C(=O)N1NC(CO)CO ; log10 EC50 observed: 1.23

Sample O=C1c2c(c3c4ccc(O)cc4n([C@@H]4O[C@H](CO)[C@@H](O)[C@H](O)[C@@H]4O)c3c3[nH]c4cc(O)ccc4c23)C(=O)N1NC(CO)CO ; log10 EC50 observed: 2.36

Sample O=C1c2c(c3c4ccc(O)cc4n([C@@H]4O[C@H](CO)[C@@H](O)[C@H]4O)c3c3[nH]c4cc(O)ccc4c23)C(=O)N1NC(CO)CO ; log10 EC50 observed: 0.90

Sample O=C1c2c(c3c4ccc(O)cc4n([C@@H]4O[C@H](CO)[C@@H](O)[C@@H]4O)c3c3[nH]c4cc(O)ccc4c23)C(=O)N1NC(CO)CO ; log10 EC50 observed: 1.51
